experimental-system: human recombinant BACE2 (Homo sapiens (Human), UniProt Q9Y5Z0)
Sequence (Q9Y5Z0 63-518): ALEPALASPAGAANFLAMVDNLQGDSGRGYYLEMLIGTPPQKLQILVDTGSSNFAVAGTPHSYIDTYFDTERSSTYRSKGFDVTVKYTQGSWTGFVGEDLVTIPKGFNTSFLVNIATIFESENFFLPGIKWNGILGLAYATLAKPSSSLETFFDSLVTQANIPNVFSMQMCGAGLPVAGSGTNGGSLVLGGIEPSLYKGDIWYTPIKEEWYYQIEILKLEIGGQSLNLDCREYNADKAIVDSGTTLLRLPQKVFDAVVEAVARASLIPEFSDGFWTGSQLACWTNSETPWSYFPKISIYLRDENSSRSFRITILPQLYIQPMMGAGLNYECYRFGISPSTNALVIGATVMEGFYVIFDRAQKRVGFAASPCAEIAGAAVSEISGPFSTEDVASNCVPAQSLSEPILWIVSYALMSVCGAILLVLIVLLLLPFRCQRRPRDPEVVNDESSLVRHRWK
protocol-text: In vitro enzymatic BACE2 FRET assay
Format: biochemical
condition-set: BACE2 FRET enzyme assay; read-out: IC50 IP (μM) BACE2 enzyme
assay-endpoint: IC50 (µM)

* COC[C@]12C[C@H]1[C@@](CF)(c1cc(NC(=O)c3ccc(Cl)cn3)ccc1F)N=C(N)S2 [Example 40] | 0.00121

[A] COc1cnc2c(Nc3cc(F)c(F)c([C@@]4(C)N=C(N)S[C@@]5(CO)C[C@H]54)c3)ncc(F)c2c1 [Example 91]
[B] C[C@]1(c2cc(Nc3nccc4cc(C#N)cnc34)cc(F)c2F)N=C(N)S[C@H]2C[C@H]21 [Example 21]
Please indicate which has the smaller reported IC50: A , or B . Label of pick, please.
B

---

experimental-system: Recombinant Cat D (Homo sapiens (Human))
Sequence (P07339 65-412): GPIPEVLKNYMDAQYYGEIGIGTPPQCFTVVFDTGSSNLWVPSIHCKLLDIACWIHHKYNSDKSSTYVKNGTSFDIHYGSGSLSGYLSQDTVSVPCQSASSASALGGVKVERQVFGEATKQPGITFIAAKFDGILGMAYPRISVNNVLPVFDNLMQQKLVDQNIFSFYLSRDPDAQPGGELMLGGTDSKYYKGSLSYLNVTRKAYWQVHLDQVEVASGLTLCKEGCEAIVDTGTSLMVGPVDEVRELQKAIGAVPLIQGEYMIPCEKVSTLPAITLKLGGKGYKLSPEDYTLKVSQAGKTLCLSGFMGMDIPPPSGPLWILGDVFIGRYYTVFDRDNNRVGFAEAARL
protocol-text: In vitro enzymatic Cathepsin D (Cat D) FRET assay
Type: biochemical
condition-set: Cathepsin D FRET enzyme assay; read-out: IC50 IP (μM) CatD
assay-endpoint: IC50 (µM)

Example results:
• Cc1cc(OC(F)F)cnc1C(=O)Nc1cc(F)c(F)c([C@@]2(CF)N=C(N)S[C@H]3C[C@H]32)c1 = 715
• NC1=N[C@](CF)(c2cc(Nc3ncnc4cc(Cl)cnc34)cc(F)c2F)[C@@H]2C[C@@H]2S1 = 331
• N#Cc1cnc2c(Nc3cc(F)c(F)c([C@@]4(CF)N=C(N)S[C@]5(CO)C[C@@H]54)c3)nccc2c1 = 29.5

[I] COc1cnc2c(Nc3cc(F)c(F)c([C@@]4(C)N=C(N)S[C@@]5(CO)C[C@H]54)c3)nccc2n1
[II] COc1cnc2c(Nc3cc(F)c(F)c([C@@]4(CF)N=C(N)S[C@H]5C[C@H]54)c3)nccc2n1
Please indicate which has the smaller reported IC50: I , or II . Label of pick, please.
II

---

Test system: Aβ40 in conditioned medium of cells stably expressing Amyloid Precursor Protein (APP)
protocol-text: In vitro BACE-1 cell-based assay (Aβ40 sandwich ELISA)
condition-set: BACE1 cell-based assay; read-out: IC50 IP (μM) BACE1 cell
assay-endpoint: IC50 (µM)

[A] Cc1cc(C#N)cnc1C(=O)Nc1cc(F)c(F)c([C@@]2(C)N=C(N)S[C@@]3(C(F)F)C[C@@H]23)c1 [Example 94]
[B] C[C@]1(c2cc(Nc3ncnc4cc(C#N)cnc34)cc(F)c2F)N=C(N)S[C@H]2C[C@H]21 [Example 36]
[C] NC1=N[C@](CF)(c2cc(NC(=O)c3ccc(Cl)cn3)cc(F)c2F)[C@@H]2C[C@]2(CF)S1 [Example 59]
[D] COc1cnc(C(=O)Nc2cc(F)c(F)c([C@@]3(CF)N=C(N)S[C@H]4C[C@H]43)c2)c(C)c1 [Example 81]
Would you mind ranking these molecules by ascending IC50? Respond with an ordered listing of the labels, as requested.
A, B, C, D

[A] C#CCOc1cnc2c(Nc3cc(F)c(F)c([C@@]4(C)N=C(N)S[C@@]5(CO)C[C@H]54)c3)nccc2n1 [Example 82]
[B] NC1=N[C@](CF)(c2cc(Nc3nccc4nc(C(F)(F)F)cnc34)ccc2F)C2C[C@@H]2S1 (stereo in doubt) [Example 87]
[C] N#Cc1cnc2c(Nc3ccc(F)c([C@@]4(CF)N=C(N)S[C@H]5CC54)c3)nccc2c1 (stereo in doubt) [Example 38]
Task for the reader: rank each entry by its IC50, from the minimum upward. Respond with an ordered listing of the labels, as requested.
A, C, B
(A: 0.00354 µM, C: 0.0144 µM, B: 22.6 µM)

---

experimental-system: Recombinant Cat D (Homo sapiens (Human))
protocol-text: In vitro enzymatic Cathepsin D (Cat D) FRET assay
Assay type: biochemical
condition-set: read-out: IC50 IP (μM) CatD
Protocol: In Vitro Enzymatic Cathepsin D (Cat D) FRET (Fluorescence Resonance Energy Transfer) Assay Recombinant Cat D was expressed in CHO cells. The assay buffer for CathepsinD is 0.05 M citrate pH 3.5, 10% DMSO final, 5 mM CHAPS. […] The FRET assay is terminated with by addition of Tris buffer, which raises the pH to neutrality, and the fluorescence is determined. […] Proteolytic cleavage of the FRET substrate releases quenching of fluorescence (Cat D excitation 500 nm and emission 580 nm).
assay-endpoint: IC50 (µM)

[1] CC(NC(=O)[C@]12C[C@H]1[C@@](C)(c1cc(NC(=O)c3cnc(OCC(F)(F)F)cn3)ccc1F)N=C(N)S2)C(F)F (stereo partly drawn) [Example 1045]
[2] C#CCOc1cnc(C(=O)Nc2cnc(F)c([C@@]3(C)N=C(N)S[C@@]4(COC)C[C@H]43)c2)cn1 [Example 859]
[3] C[C@]1(c2cc(Nc3ncc(F)c4cc(OCc5ncco5)cnc34)cc(F)c2F)N=C(N)S[C@@]2(C(F)F)C[C@@H]12 [Example 949]
Would you mind ranking these compounds by ascending IC50? Respond with an ordered listing of the labels, as requested.
1, 3, 2
(1: 194 µM, 3: 336 µM, 2: 590 µM)

[P] Cc1cc(OCc2ncco2)cnc1C(=O)Nc1cc(F)c(F)c([C@@]2(C)N=C(N)S[C@@]3(C(F)F)C[C@@H]23)c1 [Example 643]
[Q] C#CCOc1cnc(C(=O)Nc2ccc(F)c([C@@]3(C)N=C(N)S[C@@]4(CF)C[C@H]43)c2)c(C)n1 [Example 829]
[R] CC(F)(F)COc1cnc2c(Nc3cc(F)c(F)c([C@@]4(C)N=C(N)S[C@@]5(C(F)F)C[C@@H]45)c3)nccc2n1 [Example 872]
Arrange the 3 compounds from largest to smallest IC50. Respond with an ordered listing of the labels, as requested.
P, Q, R

[1] NC1=N[C@](CF)(c2cc(NC(=O)c3ccc(Cl)cn3)ccc2F)[C@@H]2C[C@]2(c2cnco2)S1 [Example 785]
[2] C[C@]1(c2cc(Nc3ncnc4cc(C#N)cnc34)cc(F)c2F)N=C(N)S[C@@]2(CF)C[C@H]21 [Example 801]
[3] C[C@]1(c2cc(NC(=O)c3cnc(OCC(F)(F)F)cn3)ccc2F)N=C(N)S[C@@]2(C(=O)N3CC[C@H](F)C3)C[C@H]21 [Example 992]
[4] C=C(C)COc1cnc(C(=O)Nc2cc(F)c(F)c([C@@]3(C)N=C(N)S[C@@]4(COC)C[C@H]43)c2)cn1 [Example 1030]
Arrange the 4 compounds from largest to smallest IC50. Respond with an ordered listing of the labels, as requested.
3, 1, 4, 2
(3: 954 µM, 1: 621 µM, 4: 243 µM, 2: 145 µM)

[a] C[C@]1(c2cc(NC(=O)c3cnc(OCC(F)(F)F)cn3)ccc2F)N=C(N)S[C@@]2(C(=O)N3CCCC3)C[C@H]21 [Example 634]
[b] COC[C@]12C[C@H]1[C@@](C)(c1cc(NC(=O)c3cnc(OCC(C)C)cn3)ccc1F)N=C(N)S2 [Example 1056]
Please indicate which has the smaller reported IC50: a , or b . Label of pick, please.
a
(a: 660 µM, b: 1240 µM)

---

experimental-system: human recombinant BACE1 (Homo sapiens (Human))
Sequence (P56817 46-501): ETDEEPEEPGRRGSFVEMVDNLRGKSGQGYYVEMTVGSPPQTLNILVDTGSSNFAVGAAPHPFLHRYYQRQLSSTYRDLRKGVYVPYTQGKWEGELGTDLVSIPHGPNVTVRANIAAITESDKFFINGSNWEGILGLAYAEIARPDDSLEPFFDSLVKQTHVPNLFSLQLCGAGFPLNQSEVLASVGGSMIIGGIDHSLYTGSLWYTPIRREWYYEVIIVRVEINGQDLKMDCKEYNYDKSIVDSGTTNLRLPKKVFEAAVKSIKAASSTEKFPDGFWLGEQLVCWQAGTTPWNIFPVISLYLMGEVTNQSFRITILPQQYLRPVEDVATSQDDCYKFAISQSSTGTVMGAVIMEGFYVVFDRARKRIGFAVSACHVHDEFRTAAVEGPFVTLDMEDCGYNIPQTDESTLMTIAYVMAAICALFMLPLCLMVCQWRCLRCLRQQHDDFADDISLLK
protocol-text: In vitro enzymatic BACE1 FRET assay
Type: biochemical
condition-set: read-out: IC50 IP (μM) BACE1 enzyme
Experimental: These recombinant proteins were further purified using Ni-NTA affinity chromatography (Qiagen). […] This assay is effectively started by the addition of FRET substrate (50 nM) and the combination is incubated for one hour. The FRET assay is terminated by addition of Tris buffer, which raises the pH to neutrality, and the fluorescence is determined. […] Proteolytic cleavage of the FRET substrate releases quenching of fluorescence (excitation 488 nm and emission 590 nm).
assay-endpoint: IC50 (µM)

Example results:
• C#CCOc1cnc2c(Nc3cc(F)c(F)c([C@@]4(C)N=C(N)S[C@@]5(C(=O)N(C)C)C[C@H]54)c3)nccc2n1 = 0.000467
• COC[C@]12C[C@H]1[C@@](C)(c1cc(NC(=O)c3cnc(OCc4nc(C)no4)cn3)ccc1F)N=C(N)S2 = 0.00471
• NC(=O)/C=C/[C@]12C[C@H]1[C@@](CF)(c1cc(NC(=O)c3ccc(Cl)cn3)ccc1F)N=C(N)S2 = 0.00101
• CC#CCOc1cnc2c(Nc3cc(F)c(F)c([C@@]4(C)N=C(N)S[C@@]5(C(N)=O)C[C@H]54)c3)nccc2n1 = 0.000201
• C[C@]1(c2cc(NC(=O)c3ccc(OCC(F)(F)C(F)F)cn3)cnc2F)N=C(N)S[C@@]2(CF)C[C@H]21 = 0.00344

[A] NC1=N[C@](CF)(c2cc(NC(=O)c3ccc(Cl)cn3)ccc2F)[C@@H]2C3CSC[C@]32S1 (stereo partly shown)
[B] C#CCOc1cnc(C(=O)Nc2cc(F)c(F)c([C@@]3(C)N=C(N)S[C@@]4(CNC(=O)OC(C)(C)C)C[C@H]43)c2)cn1
Please indicate which has the smaller reported IC50: A , or B . Label of pick, please.
B
(B: 0.000455 µM, A: 0.00339 µM)
